# test: PhoP regulon inhibitors, Salmonella typhi PhoP promoter GFP reporter, confirmatory (AID 1850);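 also: 0% = induced wells with vehicle and 100% = uninduced wells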
# measurement-parameters: fluorescence, 4 h, at 50 µM, active compounds read high
The campaign covered roughly 310,000 compounds. About 1,000 (0.32%) were called active. A selection follows. Results with a measured potency or affinity are listed apart.
observation-type: inhibition (%)
Respond with the bare value in %.

Some entries whose results are on file:
CCOc1ccccc1CNC(=O)Cn1ccc2cc(S(=O)(=O)N3CCCC3)ccc21 ... 3.38
COc1ccc(CCC(=O)NCCOc2ccc(Cl)cc2)cc1 ... -4.36
CCOC(=O)c1cc2c(=O)n3ccccc3nc2n(C)c1=NC(=O)c1c(-c2c(F)cccc2Cl)noc1C ... -5.85
O=C(O)C1CC(O)CN1c1nc(Cl)ccc1[N+](=O)[O-] (stereo not given) ... 4.36
CCOc1ccccc1N1C(=O)NC(=O)C(CCc2ccncc2)(CCc2ccncc2)C1=O ... -6.46
CCN(CC)CCn1c(=N)n(CC(=O)c2ccc(Br)s2)c2ccccc21 ... 14.1
O=C(CN1CC[n+]2c(-c3ccccc3)csc21)c1ccc(Br)cc1 ... 7.36
COc1ccc(CCN2CC(C(=O)NCCc3ccccc3C)CCC2=O)cc1 (stereo not given) ... 0.24

Input: Need inhibition of O=C(CN1CC[n+]2c(-c3cccs3)csc21)c1ccc(Br)cc1 , thanks.
Output: -5.14

Input: Need inhibition of CCC(C)NC(=O)CSc1nc2ccc(N3CCOCC3)cc2c(=O)n1CCc1ccccc1 (stereo not given) , thanks.
Output: -0.99

* * *

# test: PhoP regulon inhibitors, Salmonella typhi PhoP promoter GFP reporter, confirmatory (AID 1850);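 also: 0% = induced wells with vehicle and 100% = uninduced wells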
# measurement-parameters: fluorescence, 4 h, at 50 µM, active compounds read high
Among all 310,000 compounds or so, about 1,000 (0.32%) were called active. Not all results are given here. Results with a measured potency or affinity are listed apart.
observation-type: inhibition (%)
Respond with the bare value in %.

O=C1N(CN2CCC3(CC2)OCCO3)c2ccccc2C12OCCCO2 ... 1.71
CCCc1nc2sc(C(=O)OCC)c(N)c2c2c1COC(C)(C)C2 ... 0.3
CCOC(=O)C1CCCCN1Cc1cccc(OC)c1OC (configuration not stated) ... -6.91
COCCN(Cc1cc2cc3c(cc2nc1Cl)OCO3)C(=O)c1ccc(C)cc1 ... -6.89
CCC(CC)C(=O)NCc1ccc(OC)cc1 ... 22.8

Input: Need inhibition of CCCCNCCCOc1cc(Cl)ccc1Cl , thanks.
Output: 6.78

Input: Need inhibition of CCCCNCCCOc1cccc(Cl)c1 , thanks.
Output: 2.53

Input: Need inhibition of OCCNCc1cc(Br)ccc1OCc1ccccc1 , thanks.
Output: -2.3

Input: Need inhibition of COc1ccc(C(=O)C(Cc2cc(C(C)=O)ccc2OC)N2CCCC2)cc1 (configuration not stated) , thanks.
Output: -6.51

Input: Need inhibition of CSC(=NS(=O)(=O)c1ccc(C)cc1)SC , thanks.
Output: 2.62

Input: Need inhibition of OCCNCc1cc(Br)ccc1OCc1ccc(F)cc1 , thanks.
Output: 10.4

Input: Need inhibition of CCOC(=O)Cc1csc(NC(=O)c2cnc3scc(C)n3c2=O)n1 , thanks.
Output: -13.9

* * *

# test: PhoP regulon inhibitors, Salmonella typhi PhoP promoter GFP reporter, confirmatory (AID 1850);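 also: 0% = induced wells with vehicle and 100% = uninduced wells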
# measurement-parameters: fluorescence, 4 h, at 50 µM, active compounds read high
Out of some 310,000 compounds screened, about 1,000 (0.32%) were called active. A selection follows. Potency and affinity values are given separately.
observation-type: inhibition (%)
Respond with the bare value in %.

Some entries whose results are on file:
CCOc1cc(CNCCO)cc(Br)c1OCc1ccc(Cl)cc1Cl ... 8.42
COc1cc(CNCc2ccccc2)cc(Cl)c1OC ... 4
O=C(Cc1ccccc1)N/N=C/c1ccc([N+](=O)[O-])s1 ... -7.77
COc1cccc(/C=C/C(=O)NCc2ccc(S(N)(=O)=O)cc2)c1 ... -0.15
CCOc1cc(CNCCc2ccc(S(N)(=O)=O)cc2)cc(Cl)c1OCc1ccccc1 ... 13

Field: next compound
Input: Need inhibition of Cc1nc2ccccn2c1C(=O)N/N=C/c1ccccc1[N+](=O)[O-] , thanks.
Output: 5.76

* * *

Listed here: items and their measured inhibition.
# test: PhoP regulon inhibitors, Salmonella typhi PhoP promoter GFP reporter, confirmatory (AID 1850);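 also: 0% = induced wells with vehicle and 100% = uninduced wells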
# measurement-parameters: fluorescence, 4 h, at 50 µM, active compounds read high
Among all 310,000 compounds or so, about 1,000 (0.32%) were called active. The list is a sample of the results. Results with a measured potency or affinity are listed apart.
Respond with the bare value in %.

Some entries whose results are on file:
COc1c(Br)cc(Br)cc1/C=N/NC(=O)c1ccncc1 ... -12.1
Cc1cc([N+](=O)[O-])nn1CC(=O)N1CCOCC1 ... 12.6
C/C=C/c1ccc(O)c(OC)c1 ... 1.57
O=C(CP(=O)(c1ccccc1)c1ccccc1)N/N=C/c1cc(Br)cc(Br)c1O ... -0.96
CCOC(=O)C1CN(S(=O)(=O)c2ccccc2)C1 ... -1.91

Input: Need inhibition of CCN1CCN(C(=O)CCS(=O)(=O)c2cc3c(cc2Cl)NC(=O)CO3)CC1 , thanks.
Output: 12.4

Input: Need inhibition of CCn1cc(CN2CCC(C(=O)Nc3cccc(-c4cccc(OC)c4)c3)CC2)cn1 , thanks.
Output: -5.91

Input: Need inhibition of Cc1ccc(C(=O)N/C(N)=N/c2nc3ccccc3o2)cc1 , thanks.
Output: -27.8

Input: Need inhibition of O=C(N/N=C/c1cc(Cl)ccc1O)c1ccc(Br)cc1 , thanks.
Output: -15.2

Input: Need inhibition of O=C(N/N=C/c1cc([N+](=O)[O-])ccc1O)c1ccncc1 , thanks.
Output: 12.7

Input: Need inhibition of CC(=O)Nc1ccc(C(=O)N/N=C/c2cc(Br)cc(Br)c2O)cc1 , thanks.
Output: -13.1

* * *

# test: PhoP regulon inhibitors, Salmonella typhi PhoP promoter GFP reporter, confirmatory (AID 1850);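 also: 0% = induced wells with vehicle and 100% = uninduced wells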
# measurement-parameters: fluorescence, 4 h, at 50 µM, active compounds read high
Hit rate of the full screen: of about 310,000 compounds, about 1,000 (0.32%) were called active. A selection follows. Entries with a potency or affinity are not part of this list.
Listed here: items and their measured inhibition.
Respond with the bare value in %.

O=c1c(C/C=C/c2ccccc2)c(O)ccn1CCc1c[nH]c2ccccc12 ... 4.16
Cc1ncc(CCl)c2c1OC(C)(C)OC2 ... 5.02
Cc1cccc(NC(=O)c2cc([N+](=O)[O-])ccc2Cl)c1O ... -4.69
CC(=O)c1ccc(OCC(O)CN2CCN(CCO)CC2)cc1 (configuration not stated) ... -2.27
Cc1ccc(NC(=O)c2cc([N+](=O)[O-])ccc2Cl)c(O)c1 ... 4.62

Input: Need inhibition of CCCn1c(SCC(=O)N2c3ccccc3Sc3ccccc32)nc2ccccc21 , thanks.
Output: -6.61

* * *

# test: PhoP regulon inhibitors, Salmonella typhi PhoP promoter GFP reporter, confirmatory (AID 1850);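 also: 0% = induced wells with vehicle and 100% = uninduced wells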
# measurement-parameters: fluorescence, 4 h, at 50 µM, active compounds read high
Hit rate of the full screen: of about 310,000 compounds, about 1,000 (0.32%) were called active. These entries were drawn from the full list. Entries with a potency or affinity are not part of this list.
Listed here: items and their measured inhibition.
Respond with the bare value in %.

O=C(Nc1cccc([N+](=O)[O-])c1)Nc1cccc([N+](=O)[O-])c1 ... 1.71

Input: Need inhibition of COc1cc2nc(Nc3ccc(C)c(Cl)c3)nc(N)c2cc1OC , thanks.
Output: 5.86

Input: Need inhibition of COc1ccc2nc(SCC(=O)Nc3ccccc3C#N)[nH]c2c1 , thanks.
Output: -8.31

Input: Need inhibition of Cc1ccc(C2N=C(N)Nc3nc4ccccc4n32)cc1 (centres undefined) , thanks.
Output: -13.9

Input: Need inhibition of Cn1c(-c2ccc(F)cc2)cnc1NCc1cccc([N+](=O)[O-])c1 , thanks.
Output: 9.25

Input: Need inhibition of COc1ccc(-c2ccc(=O)n(CC(=O)Nc3cccc(O)c3)n2)cc1OC , thanks.
Output: -4.09

Input: Need inhibition of O=C(C[n+]1cc(-c2ccccc2)n2c1CCCCC2)c1ccc(Br)cc1 , thanks.
Output: -5.28

Input: Need inhibition of COc1ccc(NCc2nn(CC(=O)c3ccc(Br)cc3)c3[n+]2CCCCC3)cc1 , thanks.
Output: 8.75

Input: Need inhibition of CC(Sc1nnc(-c2ccccc2Br)o1)C(=O)N1CCOCC1 (centres undefined) , thanks.
Output: 0.36

* * *

# test: PhoP regulon inhibitors, Salmonella typhi PhoP promoter GFP reporter, confirmatory (AID 1850);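 also: 0% = induced wells with vehicle and 100% = uninduced wells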
# measurement-parameters: fluorescence, 4 h, at 50 µM, active compounds read high
The whole screen tested about 310,000 compounds, of which about 1,000 (0.32%) were called active. Only a sample is shown. Results with a measured potency or affinity are listed apart.
Listed here: items and their measured inhibition.
Respond with the bare value in %.

CCOC(=O)N1CCN(C(=O)c2cc(COc3ccc4ncccc4c3)on2)CC1 ... -2.35
CCn1c(=N)n(CC(=O)c2ccc(Br)s2)c2ccccc21 ... 11.2
COc1ccccc1-c1c(C)nn2c(N3CCC4(CC3)OCCO4)cc(C)nc12 ... -2.41
CCOC(=O)c1sc(=NC(=O)c2ccc(F)cc2)n(C)c1C ... 0.21
Cc1cccc(NC(=O)COC(=O)Cc2c[nH]c3ccccc23)c1C ... -3.69

Input: Need inhibition of CN(C)CCCNc1c2c(nc3ccccc13)CCC2 , thanks.
Output: 5.26

Input: Need inhibition of CCOc1ccc(NC(=O)CSC(N)=O)cc1 , thanks.
Output: -9.69

Input: Need inhibition of O=C(O)CCCC(=O)NCCCCc1ccccc1 , thanks.
Output: -10.7

Input: Need inhibition of N/C(=N/[N+](=O)[O-])N1CCN(C(=O)c2ccc(Cl)cc2)CC1 , thanks.
Output: 9.05

Input: Need inhibition of OCCNc1c2c(nc3ccccc13)CCCC2 , thanks.
Output: -3.18

Input: Need inhibition of Cn1c(=N)n(CC(=O)c2ccc(Br)s2)c2ccccc21 , thanks.
Output: -0.89

Input: Need inhibition of N=c1n(CC(=O)c2cccs2)c2ccccc2n1Cc1ccccc1 , thanks.
Output: 11.7

Input: Need inhibition of O=C(O)c1ccccc1N/N=C/c1cc(Br)cc(Br)c1O , thanks.
Output: 5.52
